Measured values drawn from paper PMC5430874 for this set.

molecular target: GPR139 N271A^7×38 (Homo sapiens, UniProt Q6DWJ6, N271A); construct: mGluR5 signal peptide (N); expressed in transfected cells; host or cells: HEK293; experiment: Fluo-4 Ca2+-assay, GPR139 mutant N271A; type: cell-based; conditions: N271A mutant (surface expression 53% of WT)
Sequence (Q6DWJ6 2-353 N271A limits assumed): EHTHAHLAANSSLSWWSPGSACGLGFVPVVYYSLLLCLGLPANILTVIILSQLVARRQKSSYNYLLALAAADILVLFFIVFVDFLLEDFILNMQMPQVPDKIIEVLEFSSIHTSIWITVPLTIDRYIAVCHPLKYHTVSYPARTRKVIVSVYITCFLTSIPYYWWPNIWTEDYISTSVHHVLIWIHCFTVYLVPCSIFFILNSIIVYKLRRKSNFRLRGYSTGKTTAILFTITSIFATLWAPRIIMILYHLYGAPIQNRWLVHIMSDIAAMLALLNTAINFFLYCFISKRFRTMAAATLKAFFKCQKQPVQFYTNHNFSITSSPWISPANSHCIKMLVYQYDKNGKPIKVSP
OBSERVATION TYPE: EC50

Examples with answers:
N[C@@H](Cc1c[nH]c2ccccc12)C(=O)O
> 10 mM
N[C@@H](Cc1ccccc1)C(=O)O
> 31.6 mM
COc1cc(OC)cc(C(=O)NNC(=O)Nc2cccc3ccccc23)c1
> 0.00794 mM

Item C[C@@H](NC(=O)CNC(=O)c1cccc(Cl)c1)c1ccccc1 (racemic) has what recorded EC50?
> 0.1 mM
